Just for reference, paper PMC6148235 is where these values come from.

- target-under-test: NRZ D79A (Danio rerio, UniProt Q8UWD5, D79A)
- Sequence (Q8UWD5 1-148 D79A): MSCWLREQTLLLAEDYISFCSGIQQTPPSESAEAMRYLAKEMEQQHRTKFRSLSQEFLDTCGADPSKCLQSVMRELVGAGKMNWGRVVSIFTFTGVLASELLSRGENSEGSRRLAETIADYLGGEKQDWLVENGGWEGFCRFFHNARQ
- procedure-details: ITC affinity measurement of NRZ: BH3 motif interactions (mutant D79A)
- Type: binding, zebrafish (Danio rerio)
- run-parameters: MicroCal iTC200, 25 °C, 25 mM HEPES pH 7.5, 150 mM NaCl, 2 mM BME, protein 30 μM, peptide 300 μM, 19 injections of 2.0 μl, means of three replicates with standard error
No end group written: not given here.
Under this convention, 1 (yes) denotes Kd strictly below 100 nM and 0 (no) denotes Kd at or above 100 nM.

seq-text: NMRVTQTIGRQLAQIGDEMDNKWRQE [Bik]
target-under-test: NRZ D79A (Danio rerio, UniProt Q8UWD5, D79A)
class-label: 1 (yes)
//
seq-text: EARAAREMAAELIRIADLLEQSVLSQAA [Bid]
target-under-test: NRZ D79A (Danio rerio, UniProt Q8UWD5, D79A)
class-label: 0 (no)
//
seq-text: EQTAVVECAQQLRNIGDLLNWKYKLL [Noxa]
target-under-test: NRZ D79A (Danio rerio, UniProt Q8UWD5, D79A)
class-label: 0 (no)
//
seq-text: ALPPEMVVARELRRIGDEFNRLYCEA [Bim]
target-under-test: NRZ D79A (Danio rerio, UniProt Q8UWD5, D79A)
class-label: 1 (yes)
//
seq-text: ALWAAKKYGQQLRRMSDEFDKGQMKR [Bad]
target-under-test: NRZ D79A (Danio rerio, UniProt Q8UWD5, D79A)
class-label: 0 (no)

QUERY: Identify whether the sequence EEQAVERVAVQLRTIGDEMNAVFLQR [Puma] records Kd below 100 nM.
RESULT: 0 (no)

----------
- target-under-test: wt-NRZ (Danio rerio, UniProt Q8UWD5)
- procedure-details: ITC affinity measurement of NRZ: BH3 motif interactions (wild type)
- Format: binding, zebrafish (Danio rerio)
- run-parameters: MicroCal iTC200, 25 °C, 25 mM HEPES pH 7.5, 150 mM NaCl, 2 mM BME, NRZ 30 μM, peptide 300 μM, 19 injections of 2.0 μl, means of three replicates with standard error
No end group written: not given here.
readout-label: Kd (µM)
# value in µM; strip the unit string

QUERY: Consider the sequence LCPAPSRASAALRHAGDELLIRFPIF [Bcl-wav] . State its measured Kd.
RESULT: 3.57

----------
- target-under-test: NRZ R86A (Danio rerio, UniProt Q8UWD5, R86A)
- procedure-details: ITC affinity measurement of NRZ: BH3 motif interactions (mutant R86A)
- Assay type: binding, zebrafish (Danio rerio)
- run-parameters: MicroCal iTC200, 25 °C, 25 mM HEPES pH 7.5, 150 mM NaCl, 2 mM BME, protein 30 μM, peptide 300 μM, 19 injections of 2.0 μl, means of three replicates with standard error
No end group written: not given here.
Entries and their pKd
Notebook: values listed as pKd are -log10 of the concentration (mol/L).

seq-text: ALWAAKKYGQQLRRMSDEFDKGQMKR [Bad]
target-under-test: NRZ R86A (Danio rerio, UniProt Q8UWD5, R86A)
pKd: 5.32
--
seq-text: NMRVTQTIGRQLAQIGDEMDNKWRQE [Bik]
target-under-test: NRZ R86A (Danio rerio, UniProt Q8UWD5, R86A)
pKd: 7.77
--
seq-text: ALPPEMVVARELRRIGDEFNRLYCEA [Bim]
target-under-test: NRZ R86A (Danio rerio, UniProt Q8UWD5, R86A)
pKd: 6.77
--
seq-text: EQTAVVECAQQLRNIGDLLNWKYKLL [Noxa]
target-under-test: NRZ R86A (Danio rerio, UniProt Q8UWD5, R86A)
pKd: 6.29

QUERY: Complete the entry with pKd for EEQAVERVAVQLRTIGDEMNAVFLQR [Puma]
RESULT: 5.56
